Reference source: patent US11254720B2

assayed system: CCK2R (Homo sapiens)
Construct: expressed in transfected cells; host or cells: HEK293
Sequence (P32239 1-447): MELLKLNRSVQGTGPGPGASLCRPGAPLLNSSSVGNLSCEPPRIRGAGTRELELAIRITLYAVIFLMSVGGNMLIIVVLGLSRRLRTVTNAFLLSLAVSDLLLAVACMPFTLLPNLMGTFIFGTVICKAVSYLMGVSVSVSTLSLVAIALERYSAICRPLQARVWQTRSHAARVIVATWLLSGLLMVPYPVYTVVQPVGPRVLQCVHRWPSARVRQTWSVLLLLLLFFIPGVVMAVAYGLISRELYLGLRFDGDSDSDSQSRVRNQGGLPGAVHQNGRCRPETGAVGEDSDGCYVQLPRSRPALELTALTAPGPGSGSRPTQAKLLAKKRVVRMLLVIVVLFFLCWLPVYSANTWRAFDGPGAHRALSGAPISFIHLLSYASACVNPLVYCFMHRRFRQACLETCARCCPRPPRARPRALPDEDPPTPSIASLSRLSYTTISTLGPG
method notes: Antagonist inhibition of agonist-induced CCK2R signaling (luciferase)
Type: cell-based
applied conditions: agonist l-CCK4-Gly-COOH 10 μM; 4 hours; read-out: IC50 for inhibition of l-CCK4-Gly-COOH induced CCK2R signaling
pIC50: −log10 of the molar value.
assay endpoint: pIC50

chemical smiles | assayed system | observed measurement
Cc1cccc(NC(=O)N[C@@H]2N=C(c3ccccc3)c3ccccc3N(CC(=O)c3ccccc3C)C2=O)c1 | CCK2R (Homo sapiens) | 7.99

###

assayed system: CCK2R (Homo sapiens)
Construct: expressed in transfected cells; host or cells: HEK293
method notes: Antagonist inhibition of agonist-induced CCK2R signaling (luciferase)
Assay type: cell-based
applied conditions: agonist s-CCK4-Gly-COOH 10 μM; 4 hours; read-out: IC50 for inhibition of s-CCK4-Gly-COOH induced CCK2R signaling

chemical smiles | IC50 / nM
Cc1cccc(NC(=O)N[C@@H]2N=C(c3ccccc3)c3ccccc3N(CC(=O)c3ccccc3C)C2=O)c1 | 0.84

###

assayed system: CCK2R (Homo sapiens)
Construct: expressed in transfected cells; host or cells: HEK293
method notes: Antagonist inhibition of agonist-induced CCK2R signaling (luciferase)
Assay type: cell-based
applied conditions: agonist tCCK4-Gly (tethered); antagonist 20 hours; read-out: IC50 for inhibition of tCCK4-Gly induced CCK2R signaling
Method: A) YM022 blocks tethered CCK4-Gly mediated CCK2R signaling. HEK293 cells were cotransfected with cDNAs encoding: CCK2R, a 5X-SRE-Luc-pest reporter gene, tCCK4-Gly (as indicated), and a β-galactosidase gene to control for transfection efficiency. Four hours following transfection, cells were with treated with increasing concentrations of YM022 for 20 hours. […] B) YM022 blocks s-CCK-4-Gly-COOH and l-CCK4-Gly-COOH mediated activation of CCK2R. HEK293 cells were transfected as indicated above. […]
pIC50: −log10 of the molar value.

chemical smiles | assayed system | pIC50
Cc1cccc(NC(=O)N[C@@H]2N=C(c3ccccc3)c3ccccc3N(CC(=O)c3ccccc3C)C2=O)c1 | CCK2R (Homo sapiens) | 9.27
